# Assay Info: CCTE_Shafer_MEA_acute_synchrony_index: CCTE's Neural Acute Assay for Synchrony, Shafer Lab (AID 2284027);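 also: network synchrony index of spontaneous spiking in primary rat cortical neurons on MEAs; fitted for loss of signal so actives lower synchrony relative to DMSO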
Activity calls are given as the source filed them. The calls were made as follows: active = hit-call score of the fitted dose curve at least 0.9, where 1 is the maximum; inactive = score below 0.9.
Outcomes: active, inactive

{"Molecular String": "CNC(=O)/C=C(\\C)OP(=O)(OC)OC", "Cat": "inactive"}
{"Molecular String": "Oc1ccc(Cl)cc1Cc1ccccc1", "Cat": "active"}
{"Molecular String": "CCCN(CCC)c1c([N+](=O)[O-])cc(C(F)(F)F)cc1[N+](=O)[O-]", "Cat": "inactive"}

---

# Assay Info: CCTE_Simmons_MITO_max_resp_rate: CCTE's HepG2 Seahorse XF Respirometric Screening Assay at Maximal Respiratory State [uncoupled], Simmons Lab (AID 2284002)
# Test Settings: actives raise or lower the signal
Active and inactive are the calls of the source. The calls were made as follows: active = hit-call score of the fitted dose curve at least 0.9, where 1 is the maximum; inactive = score below 0.9.
Outcome codes: active, inactive

{"Compound": "O=C(O)CCCOc1ccc(Cl)cc1Cl", "Cat": "inactive"}
{"Compound": "CCOC1Oc2ccc(OS(C)(=O)=O)cc2C1(C)C (stereo not given)", "Cat": "active"}
{"Compound": "CC1(c2ccc(Oc3ccccc3)cc2)OC(=O)N(Nc2ccccc2)C1=O (stereo not given)", "Cat": "active"}
{"Compound": "O=C(O)COc1ccc(Cl)cc1Cl", "Cat": "inactive"}
{"Compound": "COP(=S)(OC)Oc1ccc([N+](=O)[O-])cc1", "Cat": "inactive"}
{"Compound": "C#CCN1C(=O)COc2cc(F)c(N3C(=O)C4=C(CCCC4)C3=O)cc21", "Cat": "active"}
{"Compound": "CC(C)(C)C(O)/C(=C\\c1ccc(Cl)cc1Cl)n1cncn1 (stereo not given)", "Cat": "active"}
{"Compound": "CCC(C)(NC(=O)c1cc(Cl)c(C)c(Cl)c1)C(=O)CCl (stereo not given)", "Cat": "inactive"}
{"Compound": "N#Cc1c(Cl)c(Cl)c(Cl)c(C#N)c1Cl", "Cat": "inactive"}
{"Compound": "CCC(C)Nc1c([N+](=O)[O-])cc(C(C)(C)C)cc1[N+](=O)[O-] (stereo not given)", "Cat": "inactive"}

---

# Read-out: BCL2L11 (gene 10018)
# Assay Info: LTEA_HepaRG_BCL2L11: Life Technologies and Expression Analysis (LTEA) Assay for Bcl-2 (BCL2L11) gene using HepaRG (AID 2283473)
# Test Settings: mRNA level, 48 h; actives raise or lower the signal
Activity calls are given as the source filed them. Rule for the calls: active = hit-call score of the fitted dose curve at least 0.9, where 1 is the maximum; inactive = score below 0.9.
Possible outcomes: active, inactive

{"Compound": "N#Cc1c(Cl)c(Cl)c(Cl)c(C#N)c1Cl", "Cat": "inactive"}
{"Compound": "CNC(=O)Oc1cccc(N=CN(C)C)c1", "Cat": "inactive"}
{"Compound": "CNC(=O)CSP(=S)(OC)OC", "Cat": "inactive"}
{"Compound": "COc1nn(CSP(=S)(OC)OC)c(=O)s1", "Cat": "inactive"}
{"Compound": "O=S1OCC2C(CO1)C1(Cl)C(Cl)=C(Cl)C2(Cl)C1(Cl)Cl (stereo not drawn)", "Cat": "inactive"}
{"Compound": "CCOCN(C(=O)CCl)c1c(C)cccc1CC", "Cat": "active"}
{"Compound": "O=[N+]([O-])/N=C1\\NCCN1Cc1ccc(Cl)nc1", "Cat": "active"}
{"Compound": "COP(=O)(OC)OC=C(Cl)Cl", "Cat": "inactive"}
{"Compound": "O=C1c2ccccc2C(=O)N1SC(Cl)(Cl)Cl", "Cat": "inactive"}
{"Compound": "CC(C)OC(=O)Nc1cccc(Cl)c1", "Cat": "inactive"}
{"Compound": "CC(C)N(C(=O)COc1nnc(C(F)(F)F)s1)c1ccc(F)cc1", "Cat": "inactive"}
{"Compound": "O=C(Nc1ccccc1)Nc1cnns1", "Cat": "inactive"}
{"Compound": "CCC(C)(C)C(=O)OC1=C(c2ccc(Cl)cc2Cl)C(=O)OC12CCCCC2", "Cat": "inactive"}
